# TEST CONDITIONS: in methanol, 283.15 K
MEASURED ATTRIBUTE: solubility (mole fraction)

[[record]]
smi = "Cc1c(C(=O)O)cccc1[N+](=O)[O-]"
experimental_result = 0.0162


====

# TEST CONDITIONS: in isopropanol, 305.65 K
MEASURED ATTRIBUTE: solubility (mole fraction)

[[record]]
smi = "Cc1c(C(=O)O)cccc1[N+](=O)[O-]"
measured_attribute = "solubility (mole fraction)"
experimental_result = 0.0362


====

# TEST CONDITIONS: in acetone, 315.65 K
MEASURED ATTRIBUTE: solubility (mole fraction)

[[record]]
smi = "Cc1c(C(=O)O)cccc1[N+](=O)[O-]"
experimental_result = 0.0793

